Tested on: giant foxtail (Setaria faberii)
Experiment: Test A preemergence
Type: in vivo
Settings: Setaria faberi, pre-emergence, 240 h, 31 g ai/ha, 0 to 100 scale (0 no effect, 100 complete control), read-out: Foxtail, Giant plant response rating
From the text: […]
Let's look at some molecules and their measured pest or weed control at 31 g/ha.
Your answer is read as %, so omit the unit and give the number.

Worked cases, pest or weed control at 31 g/ha given:
[
  {
    "item_smiles": "N#Cc1cccc(Oc2ncc(Br)cn2)c1Oc1ncc(Cl)cn1",
    "units_label": "%",
    "observed_measurement": 90
  },
  {
    "item_smiles": "N#Cc1cccc(Oc2ncc(Br)cn2)c1Oc1ccc(Br)cn1",
    "units_label": "%",
    "observed_measurement": 0
  },
  {
    "item_smiles": "N#Cc1cccc(Oc2ncc(Cl)cn2)c1Oc1cccnc1",
    "units_label": "%",
    "observed_measurement": 0
  },
  {
    "item_smiles": "N#Cc1cccc(Oc2ncc(C(F)(F)F)cn2)c1Oc1ncc(Cl)cn1",
    "units_label": "%",
    "observed_measurement": 100
  },
  {
    "item_smiles": "FC(F)c1cnc(Oc2c(Br)cccc2Oc2ncc(Cl)cn2)s1",
    "units_label": "%",
    "observed_measurement": 40
  }
]

Give the measured pest or weed control at 31 g/ha of N#Cc1cccc(Oc2ncc(Cl)cn2)c1Oc1ccc(Br)cn1 .
60

----------
Tested on: large (Lg) crabgrass (Digitaria sanguinalis)
Experiment: Test C postemergence
Format: in vivo
Conditions: Digitaria sanguinalis, post-emergence, 336 h; Postemergence, 125 g ai/ha, scale 0 to 100; read-out: Plant response rating, Crabgrass, Large
Let's look at some compounds and their measured pest or weed control at 125 g/ha.
Your answer is read as %, so omit the unit and give the number.

[
  {
    "item_smiles": "Fc1cnc(Oc2c(F)cccc2Oc2ncc(Cl)cn2)nc1",
    "system": "large (Lg) crabgrass (Digitaria sanguinalis)",
    "units_label": "%",
    "pest or weed control at 125 g/ha": 10
  }
]

Give the measured pest or weed control at 125 g/ha of N#Cc1cccc(Oc2ncc(C(F)(F)F)cn2)c1Oc1ncc(Cl)cn1 .
10

What do you get for N#Cc1cccc(Oc2ncc(Cl)cn2)c1Oc1ncc(Cl)cn1 ?
15

----------
Test system: ragweed (common ragweed, Ambrosia elatior)
Test: Test A postemergence
Format: in vivo
Conditions: Ambrosia artemisiifolia, post-emergence, 240 h, 125 g ai/ha, 0 to 100 scale, read-out: Plant response rating, Ragweed
Source text: […]
Let's look at some compounds and their measured pest or weed control at 125 g/ha.
Your answer is read as %, so omit the unit and give the number.

Worked cases, pest or weed control at 125 g/ha given:
[
  {
    "compound": "FCc1cccc(Oc2ncc(Cl)cn2)c1Oc1ncc(Cl)cn1 [Compound 44]",
    "units_label": "%",
    "pest or weed control at 125 g/ha": 70
  },
  {
    "compound": "Fc1cccc(Oc2ncc(Cl)cn2)c1Oc1ncc(C(F)(F)F)cn1 [Compound 43]",
    "units_label": "%",
    "pest or weed control at 125 g/ha": 70
  },
  {
    "compound": "N#Cc1cccc(Oc2ncc(Cl)cn2)c1Oc1ccc(Cl)cc1 [Compound 36]",
    "units_label": "%",
    "pest or weed control at 125 g/ha": 20
  },
  {
    "compound": "N#Cc1cccc(Oc2ncc(C(F)(F)F)cn2)c1Oc1ncc(Cl)cn1 [Compound 39]",
    "units_label": "%",
    "pest or weed control at 125 g/ha": 60
  },
  {
    "compound": "Fc1cccc(Oc2ncc(C(F)(F)F)cn2)c1Oc1ncc(Cl)cn1 [Compound 42]",
    "units_label": "%",
    "pest or weed control at 125 g/ha": 70
  }
]

Please look at the following compound next.
Give the measured pest or weed control at 125 g/ha of FC(F)c1cccc(Oc2ncc(Br)cn2)c1Oc1ncc(Cl)cn1 [Compound 41] .
50
